- target desc: 5-hydroxytryptamine receptor 7 (Homo sapiens)
- Sequence (P34969 whole entry): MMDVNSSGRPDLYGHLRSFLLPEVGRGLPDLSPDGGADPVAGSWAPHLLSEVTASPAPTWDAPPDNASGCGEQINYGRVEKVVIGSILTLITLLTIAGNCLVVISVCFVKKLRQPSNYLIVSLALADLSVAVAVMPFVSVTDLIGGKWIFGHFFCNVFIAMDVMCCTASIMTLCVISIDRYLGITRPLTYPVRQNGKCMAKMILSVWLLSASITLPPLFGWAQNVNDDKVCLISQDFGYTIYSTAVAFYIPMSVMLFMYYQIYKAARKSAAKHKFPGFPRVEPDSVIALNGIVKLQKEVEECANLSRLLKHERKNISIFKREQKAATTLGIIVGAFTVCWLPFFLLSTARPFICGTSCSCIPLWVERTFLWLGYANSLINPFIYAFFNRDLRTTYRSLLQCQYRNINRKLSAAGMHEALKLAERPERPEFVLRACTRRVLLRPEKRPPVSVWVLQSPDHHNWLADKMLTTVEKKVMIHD
- protocol: Antagonist activity at human 5-HT7 receptor expressed in CHO-K1 cells assessed as decrease in serotonin-induced cAMP level after 1 hr by TR-FRET assay
- Type: functional, cell-based
property: Kb
# do not omit the unit; it follows the number

## Input Give me measured Kb, please, for this compound: COc1ccccc1N1CCN(CCCOc2ccc(C)cc2C)CC1.Cl
## Output 448 nM

## Input Give me measured Kb, please, for this compound: Cc1cc(OCCCN2CCN(c3ccccc3)CC2)ccc1Cl.Cl.Cl
## Output 2460 nM

## Input Give me measured Kb, please, for this compound: COc1ccccc1N1CCN(CCOCCOc2cc(C)cc(C)c2C)CC1.Cl.Cl
## Output 995 nM

## Input Give me measured Kb, please, for this compound: COc1ccccc1N1CCN(CCOCCOc2c(C)cc(C)cc2C)CC1.Cl.Cl
## Output 783 nM
